Test: Plasma clearance in female rat was determined with intravenous dosing at 1 mpk and oral dosing at 2 mpk
Type: ADME, organism-based
Conditions: 1 mg/kg
Documented clearance across a set of compounds
QUANTITY: clearance (mL/min/kg)

C[C@@H]1c2cc(O)ccc2O[C@@H](c2ccc(OCCN3CCCCC3)cc2)[C@H]1c1ccc(O)cc1; 7.7
C[C@@H]1c2c(ccc(O)c2F)O[C@@H](c2ccc(OC[C@H](C)N3CCCC3)cc2)[C@H]1c1ccc(O)cc1; 42.6
C[C@@H]1c2c(ccc(O)c2F)O[C@@H](c2ccc(OCCN3CCCCC3)cc2)[C@H]1c1ccc(O)cc1; 16.9
C[C@@H]1c2ccc(O)cc2O[C@@H](c2ccc(OCCN3CCCCC3)cc2)[C@H]1c1ccc(O)cc1; 9.5
C[C@H]1CCN([C@@H](C)COc2ccc([C@@H]3Oc4ccc(O)c(F)c4[C@@H](C)[C@@H]3c3ccc(O)cc3)cc2)C1; 9
C[C@@H]1CCN(CCOc2ccc([C@@H]3Oc4ccc(O)c(F)c4[C@@H](C)[C@@H]3c3ccc(O)cc3)cc2)C1; 17.8

====

Assay: Half life in female rat was determined with intravenous dosing at 1 mpk and oral dosing at 2 mpk
Format: ADME, organism-based
Conditions: in vivo
# Met = half-life below 8 h (exclusive); Not met = half-life at/above 8 h

C[C@@H]1c2c(ccc(O)c2F)O[C@@H](c2ccc(OC[C@H](C)N3CCCC3)cc2)[C@H]1c1ccc(O)cc1; Met
C[C@@H]1c2c(ccc(O)c2F)O[C@@H](c2ccc(OCCN3CCCCC3)cc2)[C@H]1c1ccc(O)cc1; Not met
C[C@@H]1c2ccc(O)cc2O[C@@H](c2ccc(OCCN3CCCCC3)cc2)[C@H]1c1ccc(O)cc1; Met
C[C@H]1CCN([C@@H](C)COc2ccc([C@@H]3Oc4ccc(O)c(F)c4[C@@H](C)[C@@H]3c3ccc(O)cc3)cc2)C1; Met

====

Experiment: Bioavailability in rat (female) (dose 1 mg/kg i.v. and 2 mg/kg p.o.)
Assay type: ADME, organism-based
Conditions: in vivo, po
Assign class by bioavailability: not lower than 40% means Met; lower than 40% means Not met.

C[C@@H]1c2c(ccc(O)c2F)O[C@@H](c2ccc(OCCN3CCCCC3)cc2)[C@H]1c1ccc(O)cc1; Met
C[C@@H]1CCN(CCOc2ccc([C@@H]3Oc4ccc(O)c(F)c4[C@@H](C)[C@@H]3c3ccc(O)cc3)cc2)C1; Met
C[C@@H]1c2ccc(O)cc2O[C@@H](c2ccc(OCCN3CCCCC3)cc2)[C@H]1c1ccc(O)cc1; Not met
C[C@@H]1c2c(ccc(O)c2F)O[C@@H](c2ccc(OC[C@H](C)N3CCCC3)cc2)[C@H]1c1ccc(O)cc1; Not met
C[C@@H]1c2cc(O)ccc2O[C@@H](c2ccc(OCCN3CCCCC3)cc2)[C@H]1c1ccc(O)cc1; Met
C[C@H]1CCN([C@@H](C)COc2ccc([C@@H]3Oc4ccc(O)c(F)c4[C@@H](C)[C@@H]3c3ccc(O)cc3)cc2)C1; Met
